# Test Details: GSK_TCMDC: Inhibition Frequency Index (IFI). The number of non-kinase HTS assays where a compound showed > 50 % inhibition, expressed as a percentage of the number of such assays in which the compound was tested
# Type: functional
The full ranking holds about 13,000 compounds; the median of “IFI” is about 4, and the highest 2% start at about 17. The sample as a whole holds a higher share of the highest values than the screen did.
Quantity Name: IFI (%)

>  <Molecule>
Nc1nc(O)c2c(n1)CCc1c(Br)cccc1-2

>  <Measurement Unit>
%

>  <Obs Value>
2.31

$$$$
>  <Molecule>
N#CCOc1c(C2CCN(CCCCNC(=O)c3ccc(-c4ccc(C(F)(F)F)cc4)cc3)CC2)ccc2c1CCCC2

>  <Measurement Unit>
%

>  <Obs Value>
7.08

$$$$
>  <Molecule>
CCN1CCC(N(Cc2ccc(-c3ccc(C(F)(F)F)cc3)cc2)C(=O)Cn2nc(C)c(=O)cc2SCc2ccc(F)cc2)CC1

>  <Measurement Unit>
%

>  <Obs Value>
19.6

$$$$
>  <Molecule>
Nc1ncc(-c2ccc(NC(=O)Nc3cc(C(F)(F)F)ccc3F)cc2)c(N)n1

>  <Measurement Unit>
%

>  <Obs Value>
0

$$$$
>  <Molecule>
Fc1ccc2[nH]cc(CCNCc3ccc(-c4cccc(-c5nc6ccccc6[nH]5)c4)cc3)c2c1

>  <Measurement Unit>
%

>  <Obs Value>
17.8

$$$$
>  <Molecule>
Nc1nccc2ccc(-c3ccc(NC(=O)Nc4cc(C(F)(F)F)ccc4F)cc3)cc12

>  <Measurement Unit>
%

>  <Obs Value>
20.2

$$$$
>  <Molecule>
Cc1cnc(C(=O)Nc2ccc3c(c2)CCCN(Cc2c[nH]c4cnccc24)C3)cn1

>  <Measurement Unit>
%

>  <Obs Value>
0

$$$$
>  <Molecule>
Cc1cc(N2CC=CCC2)nc(NC(=N)Nc2ccc(Cl)cc2)n1

>  <Measurement Unit>
%

>  <Obs Value>
4.29

$$$$
>  <Molecule>
CN(C)CCN(C)Cc1ccc(-c2ccc3c(Nc4ccc(F)cc4Cl)ccnc3c2)o1

>  <Measurement Unit>
%

>  <Obs Value>
9.86

$$$$
>  <Molecule>
CCN1CCC(N(Cc2ccc(-c3ccc(C(F)(F)F)cc3)cc2)C(=O)Cn2c(SCc3ccc(F)cc3)nc(=O)c3c2CCC3)CC1

>  <Measurement Unit>
%

>  <Obs Value>
12.5

$$$$
>  <Molecule>
CCN(CC)CCN(Cc1ccc(-c2ccc(C(F)(F)F)cc2)cc1)C(=O)Cn1c(/C=C/c2ccco2)nc(=O)c2ccccc21

>  <Measurement Unit>
%

>  <Obs Value>
5.52

$$$$
>  <Molecule>
NCC1CCCN1Cc1cccc(-c2cccc(-c3nc4cc(F)ccc4[nH]3)c2)c1 (centres undefined)

>  <Measurement Unit>
%

>  <Obs Value>
5

$$$$
>  <Molecule>
Cc1[nH]c(C)c(-c2ccc(OCc3cccc(C(F)(F)F)c3)nc2)c(=O)c1Br

>  <Measurement Unit>
%

>  <Obs Value>
13.8

$$$$
>  <Molecule>
CCN1CCC(N(Cc2ccc(-c3ccc(C(F)(F)F)cc3)cc2)C(=O)Cn2c(SCc3cccc(F)c3F)cc(=O)c3ccccc32)C1 (centres undefined)

>  <Measurement Unit>
%

>  <Obs Value>
7.14

$$$$
>  <Molecule>
Nc1ccc(-c2ccc(NC(=O)Nc3cc(C(F)(F)F)ccc3F)cc2)cn1

>  <Measurement Unit>
%

>  <Obs Value>
1.32

$$$$
>  <Molecule>
CCCCc1ccc(S(=O)(=O)Nc2ccc3c(c2)CCN(Cc2c[nH]c4cnccc24)CC3)cc1

>  <Measurement Unit>
%

>  <Obs Value>
19.4

$$$$
>  <Molecule>
Fc1ccc2[nH]c(-c3cccc(-c4ccc(CNCCc5ccncc5)cc4)c3)nc2c1

>  <Measurement Unit>
%

>  <Obs Value>
9.71

$$$$
>  <Molecule>
CCOc1ccc2[nH]c(C)cc(=NN=Cc3ccccc3)c2c1

>  <Measurement Unit>
%

>  <Obs Value>
1.53

$$$$
>  <Molecule>
CC[C@H](C)CNC(=O)c1cccc(-c2ccc(CN3CCC(N4CCCC4)CC3)cc2)n1

>  <Measurement Unit>
%

>  <Obs Value>
9.09

$$$$
